- TARGET_OR_TEST_SYSTEM: Aspartate--tRNA(Asp/Asn) ligase (Mycobacterium tuberculosis (strain ATCC 25618 / H37Rv)) (UniProt P9WFW3)
- Sequence (whole entry): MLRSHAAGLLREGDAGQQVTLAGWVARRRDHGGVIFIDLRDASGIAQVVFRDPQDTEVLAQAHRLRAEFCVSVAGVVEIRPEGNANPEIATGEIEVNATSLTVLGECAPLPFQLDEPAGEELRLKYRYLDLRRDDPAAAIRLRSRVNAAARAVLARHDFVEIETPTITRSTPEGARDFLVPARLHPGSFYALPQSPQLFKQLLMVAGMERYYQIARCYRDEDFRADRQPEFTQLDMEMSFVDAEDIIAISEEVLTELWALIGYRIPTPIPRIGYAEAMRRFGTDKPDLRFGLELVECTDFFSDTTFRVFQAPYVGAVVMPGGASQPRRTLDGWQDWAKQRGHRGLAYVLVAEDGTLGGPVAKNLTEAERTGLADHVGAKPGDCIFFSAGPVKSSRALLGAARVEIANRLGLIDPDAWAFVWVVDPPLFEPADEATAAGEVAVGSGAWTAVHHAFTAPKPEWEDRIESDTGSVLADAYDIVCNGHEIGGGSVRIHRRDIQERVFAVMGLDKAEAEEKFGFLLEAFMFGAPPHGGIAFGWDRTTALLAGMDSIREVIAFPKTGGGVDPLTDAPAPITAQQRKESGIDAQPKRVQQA
- EXPERIMENTAL_DETAILS: Assay for Asp RNA synthetase-1 from Mycobacterium tuberculosis
- Format: functional
- Set-up: scale not given: in the data most compounds retested in dose-response had high values
- CONDITION_DETAILS: 30 µM
Each entry below carries its reported Percent Effect.
# value in %; strip the unit string

Cc1nccn1C1CCCN(C(=O)c2ccc3c(c2)nnn3C)C1 (configuration not stated) = -1.94
CCCS(=O)(=O)N1CCC2(CC1)CN(c1ccccn1)CCO2 = 2.47

Query :: // query Percent Effect value for entry "CC(C)c1nn(C)c(N(C)C)c1CNCCC(=O)NC1CCCC1"
Result :: -3.2

Query :: // query Percent Effect value for entry CCc1nc(CCNC(=O)C2CCOC2)sc1C (configuration not stated)
Result :: -2.83

Query :: // query Percent Effect value for entry CC(=O)N(Cc1ncc(C)o1)C1CCN(Cc2noc(C)n2)C1 (configuration not stated)
Result :: 5.42

Query :: // query Percent Effect value for entry Cc1cn2c(n1)CCC(NC(=O)CCn1cncn1)C2 (configuration not stated)
Result :: -0.674

Query :: // query Percent Effect value for entry "c1cncc(-c2nccc(CN3CCCC3)n2)c1"
Result :: 2.87

Query :: // query Percent Effect value for entry "Cc1noc(C(C)C)c1C(=O)NS(=O)(=O)c1ccc(Cl)cc1"
Result :: -2.79

Query :: // query Percent Effect value for entry Cc1cnn(CC(C)NCc2nc(-c3ccco3)no2)c1 (configuration not stated)
Result :: -4.9

Query :: // query Percent Effect value for entry Cc1cnn(CCNCC(O)COc2ccc(Cl)cc2)c1 (configuration not stated)
Result :: -2.57

Query :: // query Percent Effect value for entry "COc1nn(C)c2c1CCCN(C(=O)c1ccccc1)C2"
Result :: -0.268

Query :: // query Percent Effect value for entry "CN(C)c1cncc(C2CCN(CCO)CC2)n1"
Result :: -2.69
